Collected activity coefficient values appear next to each entry.
Assay: activity coefficient (dimensionless); of the first substance listed, at infinite dilution; xn = mol fraction of the nth substance listed
Details: 323.15 K; Liquid; Chromatography; x1 = 0

Before answering, review these 2 worked examples.
>>> value_reported("Cc1ccccc1 [toluene] + CCCCCCCCn1cc[n+](COCCCOC[n+]2ccn(CCCCCCCC)c2C)c1C.O=S(=O)([N-]S(=O)(=O)C(F)(F)F)C(F)(F)F.O=S(=O)([N-]S(=O)(=O)C(F)(F)F)C(F)(F)F")
0.54
>>> value_reported("C1CCCCCC1 [cycloheptane] + CCCCCCCCn1cc[n+](COCCC)c1C.N#C[N-]C#N")
15.7

## Input activity coefficient lookup needed for C1CCCCC1 [cyclohexane] + CN(C)c1cc[n+](COCCCOC[n+]2ccc(N(C)C)cc2)cc1.O=S(=O)([N-]S(=O)(=O)C(F)(F)F)C(F)(F)F.O=S(=O)([N-]S(=O)(=O)C(F)(F)F)C(F)(F)F , thanks.
## Output 10.7

----------
Experiment: activity coefficient (dimensionless); of the first substance listed, at infinite dilution; xn = mol fraction of the nth substance listed
Settings: 343.15 K; Liquid; Chromatography; x1 = 0
observation type: activity coefficient
The response must contain the number and no unit.

Before answering, review these 4 worked examples.
>>> value_reported("CCCO [propan-1-ol] + Cn1cc[n+](COCCCOC[n+]2ccn(C)c2)c1.N#C[N-]C#N.N#C[N-]C#N")
1.1
>>> value_reported("CCC[N+](=O)[O-] [1-nitropropane] + CCCCCCCCn1cc[n+](COCCC)c1C.N#C[N-]C#N")
0.75
>>> value_reported("ClC(Cl)Cl [trichloromethane] + CCCOC[n+]1ccc(N(C)C)cc1.O=S(=O)([N-]S(=O)(=O)C(F)(F)F)C(F)(F)F")
0.79
>>> value_reported("CCCC(C)=O [pentan-2-one] + CCCCCCCCn1cc[n+](COCCC)c1C.N#C[N-]C#N")
0.98

## Input activity coefficient lookup needed for CCCCO [butan-1-ol] + CCCOC[n+]1ccn(C)c1.N#C[N-]C#N , thanks.
## Output 1.27

## Input activity coefficient lookup needed for CO [methanol] + CN(C)c1cc[n+](COCCCOC[n+]2ccc(N(C)C)cc2)cc1.O=S(=O)([N-]S(=O)(=O)C(F)(F)F)C(F)(F)F.O=S(=O)([N-]S(=O)(=O)C(F)(F)F)C(F)(F)F , thanks.
## Output 0.79

## Input activity coefficient lookup needed for CCCCCCCC [octane] + CCCOC[n+]1ccc(N(C)C)cc1.O=S(=O)([N-]S(=O)(=O)C(F)(F)F)C(F)(F)F , thanks.
## Output 17.7

## Input activity coefficient lookup needed for CCCCCCCC [octane] + CCCOC[n+]1ccn(Cc2ccccc2)c1.N#C[N-]C#N , thanks.
## Output 57.8

## Input activity coefficient lookup needed for CCC[N+](=O)[O-] [1-nitropropane] + N#C[N-]C#N.N#C[N-]C#N.c1ccc(Cn2cc[n+](COCCCOC[n+]3ccn(Cc4ccccc4)c3)c2)cc1 , thanks.
## Output 1.75

## Input activity coefficient lookup needed for CCC(C)=O [butanone] + CCCOC[n+]1ccn(Cc2ccccc2)c1.F[B-](F)(F)F , thanks.
## Output 0.89

## Input activity coefficient lookup needed for CC#N [acetonitrile] + CN(C)c1cc[n+](COCCCOC[n+]2ccc(N(C)C)cc2)cc1.O=S(=O)([N-]S(=O)(=O)C(F)(F)F)C(F)(F)F.O=S(=O)([N-]S(=O)(=O)C(F)(F)F)C(F)(F)F , thanks.
## Output 0.37

## Input activity coefficient lookup needed for CCCCCCCCCCC [undecane] + CCCOC[n+]1ccn(Cc2ccccc2)c1.N#C[N-]C#N , thanks.
## Output 140
